system: P. falciparum stage V gametocytes; design: BacTiter-Glo ATP luminescence viability of purified stage V gametocytes in 384-well plates, per cent inhibition versus DMSO; details: 48 h, 5 µM; inhibitor
Out of some 13,000 compounds screened, about 3,200 (25%) showed an effect of 50% or more. Some of the results follow.
measured.parameter: % Inhibition
Number first, unit second.

Sample answers from the record:
The molecule identified as c1ccc(CCNCc2cccc(-c3ccc(CNc4ccc5ncccc5c4)cc3)c2)cc1 registered its % Inhibition at 87.5%

The molecule identified as CC(=O)Nc1ccc(C(=O)N2CCN(c3ccnc4cc(Cl)ccc34)CC2)cc1 registered its % Inhibition at -9.196%

The molecule identified as Cn1cc(CN2CCC(CCOC(c3ccccc3)c3ccccc3)CC2)cn1 registered its % Inhibition at 75.05%

---
The molecule identified as Cn1cc(CN2CCCC(COC(c3ccccc3)c3ccccc3)C2)cn1 (centres unmarked) registered its % Inhibition at 17.19%

The molecule identified as COc1ccc2nccc(N3CCC(SCCNS(=O)(=O)c4ccc5c(c4)OCCO5)C3)c2n1 (centres unmarked) registered its % Inhibition at -1.611%

The molecule identified as Oc1ccccc1CN1CCC(CCOC(c2ccccc2)c2ccc(Cl)cc2)CC1 (centres unmarked) registered its % Inhibition at 23.64%

The molecule identified as CCNc1cc(-c2cccc(OC)c2)nc(Nc2ccc(F)cc2)n1 registered its % Inhibition at -12.85%

The molecule identified as COc1cccc(CNC(=O)c2ccnc(-c3ccc(CNCCOc4ccccc4)cc3)c2)c1 registered its % Inhibition at 1.442%

The molecule identified as CCCNC[C@@H](O)[C@H](Cc1ccccc1)NC(=O)c1cc(NCC)cc(N2CCCCS2(=O)=O)c1 registered its % Inhibition at 19.71%

The molecule identified as Cn1nc(C(F)(F)F)cc1-c1ccc(C(=O)Nc2ccc3c(c2)CNCC3(C)C)s1 registered its % Inhibition at 39.68%

The molecule identified as COCCNCc1ccc(-c2ccc(CNc3ccc4ncccc4c3)cc2)cc1 registered its % Inhibition at 92.65%

The molecule identified as CCOc1ccc(C=CC(=O)Nc2ccc3nc(N4CCN(C)CC4)cc(C)c3c2)cc1OC registered its % Inhibition at -25.94%

The molecule identified as c1ccc(C(OCCC2CCN(Cc3cccnc3)CC2)c2ccccc2)cc1 registered its % Inhibition at 0.3767%

The molecule identified as CCCCOC(=O)c1ccc(NC(=O)Nc2ccc(Cn3ncc(N4CCCNCC4)c(Cl)c3=O)cc2)cc1 registered its % Inhibition at -2.086%

The molecule identified as COC(=O)c1ccc(CC(C)NCC(O)c2cccc(Cl)c2Cl)cc1 (centres unmarked) registered its % Inhibition at 20.31%

The molecule identified as c1cnc2ccc(NCc3ccc(-c4ccc(CNC5CCCC5)cc4)cc3)cc2c1 registered its % Inhibition at 45.47%

The molecule identified as CC(C)N1CCC(Oc2ccc(CN3CCN(C(c4ccccc4)c4ccc(Cl)cc4)CC3)cc2)CC1 (centres unmarked) registered its % Inhibition at 68.21%
